All figures here come from patent US20220281976A1.

Target: T1, human CD33 (human, UniProt P20138 18-364)
T1 construct: CD33 on human primary dendritic cells, macrophages, monocytes and T cells and on CHO cells expressing recombinant human CD33; also called Siglec-3; hCD33
T1 sequence (P20138 18-364): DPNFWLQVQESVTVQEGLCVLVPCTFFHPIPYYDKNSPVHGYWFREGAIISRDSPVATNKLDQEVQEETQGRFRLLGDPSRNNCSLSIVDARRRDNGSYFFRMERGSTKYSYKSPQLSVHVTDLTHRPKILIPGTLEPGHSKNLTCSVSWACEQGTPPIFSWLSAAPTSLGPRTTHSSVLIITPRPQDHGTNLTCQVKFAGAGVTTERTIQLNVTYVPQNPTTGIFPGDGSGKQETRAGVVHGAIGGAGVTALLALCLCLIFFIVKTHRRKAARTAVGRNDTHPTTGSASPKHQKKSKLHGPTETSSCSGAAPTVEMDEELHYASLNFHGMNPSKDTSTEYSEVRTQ
Test: flow cytometry, human primary dendritic cells;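 note: binding of anti-CD33 antibodies (10 ug/ml, 1 h on ice) to human primary dendritic cells, detected with a PE-labelled secondary antibody, reported as flow cytometry MFI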
Documented DC MFI across a set of binders
In your answer, state the number alone without any accompanying words.

Record excerpt, results attached:
{"BINDER": "C-38 (antibody, V domains shown, human IgG1) VH: QLQLQESGPGLVKPSETLSLTCTVSGGSISSSSYYWGWIRQPPGKGLEWIGSIYYSGSTYYNPSLKSRVTISVDTSKNQFSLKLSSVTAADTAVYYCAREATAAADHPGMDVWGQGTTVTVSS VL: DIQMTQSPSSLSASVGDRVTITCQASQDITNYLNWYQQKPGKAPKLLIYDASNLETGVPSRFSGSRSGTDFTFTISSLQPEDIATYYCQQYHDFPTFGGGTKVEIK", "DC MFI": 1740}
{"BINDER": "C-25 (antibody, V domains shown, human IgG1) VH: EVQLVESGGGLVQPGGSLRLSCAASGFTFSSYWMSWVRQAPGKGLEWVANIKSDGSEKYYVDSVKGRFTISRDNAKNSLYLQMNSLRAEDTAVYYCAREGFRDGINWFDPWGQGTLVTVSS VL: DIQMTQSPSSLSASVGDRVTITCRASQSISRYLNWYQQKPGKAPKLLIYAASSLQSGVPSRFSGSGSGTDFTLTISSLQPEDFATYYCQQQFLTPITFGGGTKVEIK", "DC MFI": 1790}

Challenge: # return recorded DC MFI for input C-10 (antibody, V domains shown, human IgG1) VH: QVQLVQSGAEVKKPGSSVKVSCKASGGTFSNYAISWVRQAPGQGLEWMGGIIPIFGTANYAQKFQGRVTITADESTSTAYMELSSLRSEDTAVYYCARDTGTYVTGDGMDVWGQGTTVTVSS VL: EIVMTQSPATLSVSPGERATLSCRASQSVSSNLAWYQQKPGQAPRLLIYGASTRATGIPARFSGSGSGTEFTLTISSLQSEDFAVYYCQQYVNLPITFGGGTKVEIK
Response given: 1230
